Target: T1, human TREM2 (human, UniProt Q9NZC2 19-174, limits assumed)
T1 construct: also called triggering receptor expressed on myeloid cells 2
T1 sequence: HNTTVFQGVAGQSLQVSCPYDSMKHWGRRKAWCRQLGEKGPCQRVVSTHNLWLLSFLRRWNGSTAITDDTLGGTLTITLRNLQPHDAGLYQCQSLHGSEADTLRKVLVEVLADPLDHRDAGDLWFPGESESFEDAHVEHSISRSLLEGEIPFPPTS
Assay: 1st screen (110 nM or 10 nM)
measured-property: Binding Signal (fold over 6E7 Parental antibody) (fold)
Enter your answer as a number in fold; do not include the unit.

# count of solved cases: 4
V19 (antibody, V domains shown) VH: EVQLVQSGAEVKKPGESLKISCKGSGYSFTSSWIAWVRQMPGKGLEWMGIIYPGDSDTRYSPSFQGQVTISADKSISTAYLQWSSLKASDTAMYFCARQRTFYYDSSDYFDYWGQGTLVTVSS VL: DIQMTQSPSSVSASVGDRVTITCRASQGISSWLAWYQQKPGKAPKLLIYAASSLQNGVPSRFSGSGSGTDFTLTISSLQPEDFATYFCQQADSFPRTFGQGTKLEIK	0.59
V77 (antibody, V domains shown) VH: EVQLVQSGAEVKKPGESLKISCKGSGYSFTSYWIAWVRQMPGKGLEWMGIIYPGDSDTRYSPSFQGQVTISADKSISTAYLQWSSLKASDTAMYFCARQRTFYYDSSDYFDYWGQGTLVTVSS VL: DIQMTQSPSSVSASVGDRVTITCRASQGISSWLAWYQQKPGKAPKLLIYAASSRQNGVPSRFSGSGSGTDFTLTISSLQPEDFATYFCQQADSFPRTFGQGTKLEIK	1.43
V3 (antibody, V domains shown) VH: EVQLVQSGAEVKKPGESLKISCKGSGYSFASYWIAWVRQMPGKGLEWMGIIYPGDSDTRYSPSFQDQVTISADKSISTAYLQWSSLKASDTAMYFCARGRTFYYDSSDYFDYWGQGTLVTVSS VL: DIQMTQSPSSVSASVGDRVTITCRASQGISSWLAWYQQKPGKAPKLLIYAASSRQNGVPSRFSGSGSGTDFTLTISSLQPEDFATYFCQQADRFPRTFGQGTKLEIK	1.97
V59 (antibody, V domains shown) VH: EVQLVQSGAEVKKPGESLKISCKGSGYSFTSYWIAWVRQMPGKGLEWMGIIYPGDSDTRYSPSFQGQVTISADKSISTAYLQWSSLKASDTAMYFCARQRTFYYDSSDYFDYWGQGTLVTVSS VL: DIQMTQSPSSVSASVGDRVTITCRASQGISSWLAWYQQKPGKAPKLLIYAASSLQNGVPSRFSGSGSGTDFTLTISSLQPEDFATYFCMQADSFPRTFGQGTKLEIK	0.19

Short answer for V1 (antibody, V domains shown) VH: EVQLVQSGAEVKKPGESLKISCKGSGYSFTSSWIAWVRQMPGKGLEWMGIIYPGDSDTRYSPSFQGQVTISADKSISTAYLQWSSLKASDTAMYFCARSRTFYYDSSDYFDYWGQGTLVTVSS VL: DIQMTQSPSSVSASVGDRVTITCRASQGISSWLAWYQQKPGKAPKLLIYAASSLTNGVPSRFSGSGSGTDFTLTISSLQPEDFATYFCQQADSYPRTFGQGTKLEIK : Binding Signal (fold over 6E7 Parental antibody) was 1.68
